Experiment: chemical genetic growth profiling, strain panel (AID 1159580);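 note: tested at 20 µM; growth read once vehicle control cultures reached saturation at 30 °C; 1 = growth at the plate median or of vehicle wells; lower values mean less growth of the strain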
Conditions: S. cerevisiae deletion strains, growth OD, locus YLR085C, strain ARP6
Among all 5,500 compounds or so, about 2,000 (36%) were called active. About 18% were inconclusive and are not listed. Cut-off read from the data, not from the text of the source: active = normalized growth mostly below about 0.91 (no sharp cut-off); inconclusive = no clear call, values can overlap the other calls; inactive = mostly above about 0.92. Some of the results follow.
Please answer using one outcome listed in active, inactive

For orientation, consider the following solved cases.
molecule	assigned-class
O=C(CSCc1cccc2ccccc12)NNC(=S)Nc1ccccc1Cl	active
O=C(CSCc1cccc2ccccc12)NNC(=O)c1ccc(F)cc1	inactive
N#C/C(=C\c1cccn1-c1ccc(OC(F)(F)F)cc1)S(=O)(=O)c1ccccc1	active
OC(CN1CCN(c2nc3ccc(Cl)cc3s2)CC1)CN1CCCN(c2ncc(C(F)(F)F)cc2Cl)CC1 (stereo unspecified)	active
CCOC(=O)Nc1ccsc1C(=O)OC	inactive
COC(=O)c1sccc1NC(=O)C1CC1	inactive
COC(=O)c1sccc1-c1ccc(C(C)=O)o1	active
COC(=O)C1=C(C)NC(C)=C(C(=O)OC)C1c1ccc(-c2ccsc2C(=O)OC)o1	inactive

## Input Hi, sorry to bother you, what did the test record for N#Cc1c(F)cccc1Oc1ccc(F)cc1 ?
## Output inactive

## Input Now consider COC(=O)c1c(-c2c(Cl)cccc2Cl)noc1NC(=O)NN1CCCCC1 and answer again.
## Output inactive

## Input Now consider N#Cc1ncc(C(F)(F)F)cc1Oc1ccc(Cl)cc1 and answer again.
## Output active

====

Form field: normalized growth (one value per entry).
Experiment: chemical genetic growth profiling, strain panel (AID 1159580);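 note: tested at 20 µM; growth read once vehicle control cultures reached saturation at 30 °C; 1 = growth at the plate median or of vehicle wells; lower values mean less growth of the strain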
Conditions: S. cerevisiae deletion strains, growth OD, locus YBR229C, strain ROT2, active compounds read low
Screen size: about 5,500 compounds; about 2,000 (36%) were called active. Roughly 18% stayed inconclusive and do not appear here. The list shows a part of the results.
Write the value as a bare number.

Solved entries (count: 5):
compound	normalized growth
Cc1cccc(C(=O)O)c1O	1.02
NC(=O)c1cccc(N)c1	1
O=c1[nH]oc2c1CCNC2	1
COC(=O)C1=CCCN(C)C1	0.954
CCNC(=O)CC[C@H](N)C(=O)O	0.991

## Input Can you share its normalized growth? I mean this compound: Cc1cccc(Nc2ccccc2C(=O)O)c1C
## Output 0.912

## Input Now consider COC(=O)C[C@H]1C(C)(C)C(=O)[C@@H]2CC3=C(CC[C@]4(C)C3=CC(=O)O[C@H]4c3ccoc3)[C@@]1(C)C2=O and answer again.
## Output 1

## Input Now consider CCCC(=O)O[C@]1(C(=O)CO)CCC2[C@@H]3CCC4=CC(=O)CC[C@]4(C)C3[C@@H](O)C[C@@]21C (stereo partly drawn) and answer again.
## Output 1.02

====

Assay: chemical genetic growth profiling, strain panel (AID 1159580);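 note: tested at 20 µM; growth read once vehicle control cultures reached saturation at 30 °C; 1 = growth at the plate median or of vehicle wells; lower values mean less growth of the strain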
Conditions: S. cerevisiae deletion strains, growth OD, locus YLR418C, strain cdc73, active compounds read low
Screen size: about 5,500 compounds; about 2,000 (36%) were called active. Inconclusive results (about 18%) are left out. This is one part of the list.
measured-parameter: normalized growth
Write the value as a bare number.

Solved entries (count: 8):
compound	test-result
Cc1ccc(Cl)c(Nc2ccccc2C(=O)O)c1Cl	0.649
CC(C)C(C)/C=C/C(C)C1CCC2C3=CC=C4CC(O)CCC4(C)C3CCC21C (stereo not given)	0.666
COC(=O)C1=CCCN(C)C1	1.02
COc1ccc(CCN2CCC(Nc3nc4ccccc4n3Cc3ccc(F)cc3)CC2)cc1	0.943
O=c1cc[nH]c(=S)[nH]1	1.03
CC(C)C(C)/C=C/C(C)[C@H]1CCC2C3=CCC4CC(=O)CC[C@]4(C)C3CC[C@@]21C (stereo not given in full)	1.03
CC(=O)OC1CCC2(C)C(=CC=C3C2CCC2(C)C3CCC2C(C)/C=C/C(C)C(C)C)C1(C)C (stereo not given)	1.02
CCOC(=O)[C@H](CCc1ccccc1)N[C@@H](C)C(=O)N1[C@H](C(=O)O)C[C@@H]2CCC[C@@H]21	1.06

## Input Can you share its normalized growth? I mean this compound: CO[C@@]1(NC(=O)CSCC#N)C(=O)N2C(C(=O)O)=C(CSc3nnnn3C)CSC21 (stereo not given in full)
## Output 1.04

## Input Now consider CC(=O)Oc1c(C)cccc1C(=O)O and answer again.
## Output 1.03
